Biological target: Cyclin-dependent kinase 14 (Homo sapiens)
Sequence (O94921 whole entry): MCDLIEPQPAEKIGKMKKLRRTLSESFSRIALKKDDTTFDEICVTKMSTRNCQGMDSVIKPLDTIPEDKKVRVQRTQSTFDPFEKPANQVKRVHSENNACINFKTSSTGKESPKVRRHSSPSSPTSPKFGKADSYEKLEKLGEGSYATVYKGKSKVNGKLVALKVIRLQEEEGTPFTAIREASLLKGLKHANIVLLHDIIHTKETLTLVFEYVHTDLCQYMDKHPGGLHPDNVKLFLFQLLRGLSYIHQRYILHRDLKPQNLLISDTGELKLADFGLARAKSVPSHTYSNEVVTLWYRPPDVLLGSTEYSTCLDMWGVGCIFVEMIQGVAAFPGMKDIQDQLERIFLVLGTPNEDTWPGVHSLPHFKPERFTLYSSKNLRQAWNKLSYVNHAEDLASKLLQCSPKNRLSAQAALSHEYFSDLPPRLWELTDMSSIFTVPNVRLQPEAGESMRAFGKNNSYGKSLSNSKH
Assay: Inhibition of CDK14 (unknown origin) by Kinomescan method
measurement.type: IC50 (µM)
API: value field is a number in µM; no unit string.

**Query** Reported IC50, compound COC[C@@H](C)N[C@H]1CC[C@H](Nc2cc(-c3cccc(NCC4(C#N)CCOCC4)n3)c(Cl)cn2)CC1 : ____
**Result** 3.45

* * *

Biological target: Cyclin-dependent kinase 7 (Homo sapiens)
Sequence (P50613 whole entry): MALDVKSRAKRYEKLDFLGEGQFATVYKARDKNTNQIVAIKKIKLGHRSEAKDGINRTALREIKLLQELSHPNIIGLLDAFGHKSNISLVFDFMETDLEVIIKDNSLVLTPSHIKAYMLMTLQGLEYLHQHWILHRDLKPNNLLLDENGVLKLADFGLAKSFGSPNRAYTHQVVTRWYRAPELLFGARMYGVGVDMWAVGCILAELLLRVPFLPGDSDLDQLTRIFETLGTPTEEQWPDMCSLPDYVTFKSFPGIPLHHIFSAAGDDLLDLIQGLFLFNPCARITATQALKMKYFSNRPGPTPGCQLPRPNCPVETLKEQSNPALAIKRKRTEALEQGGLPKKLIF
pIC50: −log10 of the molar value.
measurement.type: pIC50

**Query** Reported pIC50, molecule COC[C@@H](C)N[C@H]1CC[C@H](Nc2cc(-c3cccc(NCC4(C#N)CCOCC4)n3)c(Cl)cn2)CC1 : ____
**Result** < 5.00
